test system: Histone deacetylase 2 (Homo sapiens, UniProt Q92769)
Sequence (Q92769 whole entry): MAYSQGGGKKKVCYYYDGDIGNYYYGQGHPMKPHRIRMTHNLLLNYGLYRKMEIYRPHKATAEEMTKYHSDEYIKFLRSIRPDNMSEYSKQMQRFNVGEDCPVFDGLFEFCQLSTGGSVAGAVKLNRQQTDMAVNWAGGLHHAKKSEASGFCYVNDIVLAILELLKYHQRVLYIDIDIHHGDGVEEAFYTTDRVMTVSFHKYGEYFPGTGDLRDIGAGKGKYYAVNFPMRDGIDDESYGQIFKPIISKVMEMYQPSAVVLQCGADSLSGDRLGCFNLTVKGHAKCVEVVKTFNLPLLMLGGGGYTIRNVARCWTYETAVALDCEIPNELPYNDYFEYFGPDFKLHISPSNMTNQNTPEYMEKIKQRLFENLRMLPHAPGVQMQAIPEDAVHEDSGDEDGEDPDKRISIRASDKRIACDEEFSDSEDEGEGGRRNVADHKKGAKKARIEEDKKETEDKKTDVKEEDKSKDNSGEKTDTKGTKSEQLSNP
assay metric: pIC50
Lab note — pIC50 values are minus log10 of concentrations in M.

// solved cases for pIC50 follow
{"smiles string": "C[C@@]12CSC(=N1)c1csc(n1)CNC(=O)C[C@@H](/C=C/CCS)OC(=O)[C@H](Cc1ccc(O)cc1)NC2=O", "test system": "Histone deacetylase 2 (Homo sapiens, UniProt Q92769)", "pIC50": 8.96}
{"smiles string": "C[C@@]12CSC(=N1)c1csc(n1)CNC(=O)C[C@@H](/C=C/CCS)OC(=O)[C@H](Cc1c[nH]cn1)NC2=O", "test system": "Histone deacetylase 2 (Homo sapiens, UniProt Q92769)", "pIC50": 8.85}
{"smiles string": "C[C@@]12CSC(=N1)c1csc(n1)CNC(=O)C[C@@H](/C=C/CCS)OC(=O)[C@H](Cc1ccccc1)NC2=O", "test system": "Histone deacetylase 2 (Homo sapiens, UniProt Q92769)", "pIC50": 8.77}

Continue with the molecule presented below.
Problem: Given the molecule C[C@@]12CSC(=N1)c1csc(n1)CNC(=O)C[C@@H](/C=C/CCS)OC(=O)[C@H](CCCN)NC2=O , what is its reported pIC50?
Result: 8.20
